# target: D(2) dopamine receptor (Homo sapiens, UniProt P14416)
# Sequence (P14416 whole entry): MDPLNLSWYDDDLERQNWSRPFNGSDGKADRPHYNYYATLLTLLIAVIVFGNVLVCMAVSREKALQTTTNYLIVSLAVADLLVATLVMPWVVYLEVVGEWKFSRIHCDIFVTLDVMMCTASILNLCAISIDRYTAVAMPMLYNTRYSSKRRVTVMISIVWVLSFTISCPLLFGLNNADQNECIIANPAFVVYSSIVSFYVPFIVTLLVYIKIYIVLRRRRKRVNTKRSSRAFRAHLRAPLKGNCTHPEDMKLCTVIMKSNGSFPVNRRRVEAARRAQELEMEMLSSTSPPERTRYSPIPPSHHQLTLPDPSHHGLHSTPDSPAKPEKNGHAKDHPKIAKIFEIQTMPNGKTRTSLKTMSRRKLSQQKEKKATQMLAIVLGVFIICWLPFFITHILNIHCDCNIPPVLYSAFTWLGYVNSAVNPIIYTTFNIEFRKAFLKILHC
# protocol: Displacement of [3H]spiperone from human dopamine D2short receptor expressed in CHO cells after 60 mins by scintillation counting analysis
# Type: cell-based
attribute_measured: Ki

Known results for molecules:
smiles: COc1ccccc1N1CCN(Cc2cc(CN3CCCCC3)c3cccccc2-3)CC1
target: D(2) dopamine receptor (Homo sapiens, UniProt P14416)
Ki: 37 nM
--
smiles: COc1ccccc1N1CCN(Cc2cc(CN3CCN(C)CC3)c3cccccc2-3)CC1
target: D(2) dopamine receptor (Homo sapiens, UniProt P14416)
Ki: 57 nM
--
smiles: COc1ccccc1N1CCN(Cc2cc(C#N)c3cccccc2-3)CC1
target: D(2) dopamine receptor (Homo sapiens, UniProt P14416)
Ki: 39 nM

Quick request: Ki for each listed item, please.
1. COc1ccccc1N1CCN(Cc2cc(CN3CCOCC3)c3cccccc2-3)CC1
2. COc1ccccc1N1CCN(Cc2cc(CN3CCN(c4ccccc4OC)CC3)c3cccccc2-3)CC1
3. COc1ccccc1N1CCN(Cc2cc(CN(C)C)c3cccccc2-3)CC1
4. CCCC#Cc1cc(CN2CCN(c3ccccc3OC)CC2)c2cccccc1-2
5. COc1ccccc1N1CCN(Cc2cc(CO)c3cccccc2-3)CC1

1. 92 nM
2. 34 nM
3. 140 nM
4. 60 nM
5. 68 nM

Return reported Ki values for all items listed beneath this line.
1. COc1ccccc1N1CCN(Cc2ccc3cccccc2-3)CC1
2. COc1ccccc1N1CCN(Cc2cc(C#Cc3ccccc3)c3cccccc2-3)CC1
3. C#Cc1cc(CN2CCN(c3ccccc3OC)CC2)c2cccccc1-2

["24 nM", "67 nM", "76 nM"]
